Attribution: patent US20180353462A1

targetOrSystem: FLT3 (Homo sapiens, UniProt P36888)
Construct: made in house
Sequence (P36888 27-993): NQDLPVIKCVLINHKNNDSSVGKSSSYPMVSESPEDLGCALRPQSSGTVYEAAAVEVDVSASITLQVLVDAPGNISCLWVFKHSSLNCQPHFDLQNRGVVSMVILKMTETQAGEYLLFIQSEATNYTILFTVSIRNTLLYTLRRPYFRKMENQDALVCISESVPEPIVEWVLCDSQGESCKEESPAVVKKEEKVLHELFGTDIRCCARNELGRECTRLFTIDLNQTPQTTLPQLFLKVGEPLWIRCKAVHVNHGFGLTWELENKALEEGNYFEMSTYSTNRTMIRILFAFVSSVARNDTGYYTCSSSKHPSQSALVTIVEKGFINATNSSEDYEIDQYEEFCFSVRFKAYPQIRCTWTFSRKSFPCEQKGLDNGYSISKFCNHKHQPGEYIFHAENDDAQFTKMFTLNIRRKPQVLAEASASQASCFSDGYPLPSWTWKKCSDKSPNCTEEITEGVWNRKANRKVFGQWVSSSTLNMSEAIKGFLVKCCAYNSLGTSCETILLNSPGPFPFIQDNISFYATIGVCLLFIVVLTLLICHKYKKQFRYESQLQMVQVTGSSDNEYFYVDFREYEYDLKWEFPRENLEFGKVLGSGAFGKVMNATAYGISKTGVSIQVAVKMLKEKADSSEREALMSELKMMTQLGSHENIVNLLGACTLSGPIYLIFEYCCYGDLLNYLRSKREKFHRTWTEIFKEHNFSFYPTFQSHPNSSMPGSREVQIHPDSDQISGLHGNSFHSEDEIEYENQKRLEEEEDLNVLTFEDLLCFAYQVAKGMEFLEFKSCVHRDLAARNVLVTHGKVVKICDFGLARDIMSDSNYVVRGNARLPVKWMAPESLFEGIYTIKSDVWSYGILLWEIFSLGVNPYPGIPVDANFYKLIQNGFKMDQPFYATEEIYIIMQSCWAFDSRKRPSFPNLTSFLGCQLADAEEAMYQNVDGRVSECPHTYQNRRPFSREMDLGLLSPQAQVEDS
Format: binding
measurementConditions: Table 1 kinase panel; read-out: IC50 (nM) FLT3

compound	relationSymbol	IC50 (nM)
COc1cc(-c2cc(=O)c3c(O)cc(O)c(C/C=C(\C)CCC=C(C)C)c3o2)ccc1O [FBL-03C]	>	20000
COc1ccc(-c2cc(=O)c3c(O)c(C/C=C(\C)CCC=C(C)C)c(O)cc3o2)cc1OC [FBL-03D]	>	30000
COc1cc(-c2cc(=O)c3c(O)cc(O)c(CC=C(C)C)c3o2)ccc1O [FBL-03G]	=	44
COc1cc(-c2cc(=O)c3c(O)c(C/C=C(\C)CCC=C(C)C)c(O)cc3o2)ccc1O [FBL-03A]	>	20000
COc1cc(-c2cc(=O)c3c(O)c(CC=C(C)C)c(O)cc3o2)ccc1O [FBL-03B]	=	41.9

====

targetOrSystem: MMP-7 (Homo sapiens)
Sequence (P09237 95-267): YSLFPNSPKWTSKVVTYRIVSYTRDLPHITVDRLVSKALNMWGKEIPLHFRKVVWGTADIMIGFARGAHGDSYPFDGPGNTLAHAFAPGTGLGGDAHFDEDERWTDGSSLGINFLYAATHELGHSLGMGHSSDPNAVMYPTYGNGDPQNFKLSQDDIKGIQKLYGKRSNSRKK
assayNotes: Inhibition of matrix metalloproteinase, MMP-7
Assay type: biochemical
measurementConditions: Table 3 Matrix metalloproteinase
measuredQuantity: IC50 (µM)

compound	displayUnit	quantitativeReadout
COc1cc(-c2cc(=O)c3c(O)c(CC=C(C)C)c(O)cc3o2)ccc1O [FBL-03B]	µM	17.5
COc1cc(-c2cc(=O)c3c(O)cc(O)c(CC=C(C)C)c3o2)ccc1O [FBL-03G]	µM	3.35
